METHOD: In-vitro metabolism of LDAA compounds using liver microsomes
Assay type: in vitro ADME, human
CONDITION_DETAILS: both sexes, human, pooled human liver microsomes, pH 7.4, 1.0E−07M; 0.1 mg/mL microsomal protein; read-out: Half-Life (minute) 2nd
Where a name gives a salt, the structure may show the parent alone. Non-standard residues stand in square brackets, D forms with d. Residues, ends and D or L forms follow the SMILES beside them. Dopa = N[C@@H](Cc1ccc(O)c(O)c1)C(=O)O
MEASURED_PARAMETER: half-life at 0.1 μM (min)
Numbers only here, please. The scale is min.

What half-life at 0.1 μM value was documented for this molecule, N=C(N)NCCC[C@H](NC(=O)[C@@H](N)Cc1ccc(O)c(O)c1)C(=O)O [LD-Arg TFA salt, Levodopa Arginine TFA Salt] ?
40.5

What would you report for N[C@@H](Cc1ccc(O)c(O)c1)C(=O)NCC(=O)O [LD-Gly TFA salt, Levodopa Glycine TFA Salt] ?
54.1

What would you report for NCCCC[C@H](NC(=O)[C@@H](N)Cc1ccc(O)c(O)c1)C(=O)O [LD-Lys TFA salt, Levodopa Lysine TFA Salt] (H-[Dopa]-Lys-OH) ?
58.3

What would you report for N[C@@H](Cc1ccc(O)c(O)c1)C(=O)N[C@@H](Cc1ccc(O)cc1)C(=O)O [LD-Tyr TFA salt, Levodopa Tyrosine TFA Salt] (H-[Dopa]-Tyr-OH) ?
315

What would you report for N[C@@H](CSC[C@@H](NC(=O)[C@@H](N)Cc1ccc(O)c(O)c1)C(=O)O)C(=O)O (single isomer, unassigned; peak 1) [LD-LA1 TFA salt, Levodopa Lanthionine Peak 1 TFA Salt] ?
87.3

What would you report for NC(=O)C[C@H](NC(=O)[C@@H](N)Cc1ccc(O)c(O)c1)C(=O)O [LD-Asn TFA salt, Levodopa Asparagine TFA Salt] (H-[Dopa]-Asn-OH) ?
77.3

What would you report for N[C@@H](Cc1ccc(O)c(O)c1)C(=O)N[C@@H](Cc1c[nH]c2ccccc12)C(=O)O [LD-Trp TFA salt, Levodopa Tryptophan] (H-[Dopa]-Trp-OH) ?
61.4

What would you report for NC(=O)CC[C@H](NC(=O)[C@@H](N)Cc1ccc(O)c(O)c1)C(=O)O [LD-Gln TFA salt, Levodopa Glutamine TFA Salt] (H-[Dopa]-Gln-OH) ?
158

What would you report for N[C@@H](Cc1ccc(O)c(O)c1)C(=O)O [LD (control), L-3,4-dihydroxyphenylalanine, reference compound] ?
131

What would you report for N[C@@H](CSC[C@H](NC(=O)[C@@H](N)Cc1ccc(O)c(O)c1)C(=O)O)C(=O)O (single isomer, unassigned; peak 2) [LD-LA2 TFA salt, Levodopa Lanthionine Peak 2 TFA Salt] ?
110

====

So I've got a bunch of molecules here, and I need their % Protein Bound 1st values.
System: human plasma
METHOD: Protein binding, equilibrium dialysis method
Assay type: in vitro ADME
CONDITION_DETAILS: 1.0E-05M; 37° C., 4 h
Counter-ions that a name gives are not always drawn. Non-standard residues stand in square brackets, D forms with d. Residues, ends and D or L forms follow the SMILES beside them. Dopa = N[C@@H](Cc1ccc(O)c(O)c1)C(=O)O
Answer with the value and then the unit.

What % Protein Bound 1st value was documented for this molecule, NCCCC[C@H](NC(=O)[C@@H](N)Cc1ccc(O)c(O)c1)C(=O)O [LD-Lys TFA salt, Levodopa Lysine TFA Salt] (H-[Dopa]-Lys-OH) ?
59.5%

What would you report for N[C@@H](Cc1ccc(O)c(O)c1)C(=O)N[C@@H](CC(=O)O)C(=O)O [LD-Asp TFA salt, Levodopa Aspartic Acid] (H-[Dopa]-Asp-OH) ?
99.1%

What would you report for NC(=O)CC[C@H](NC(=O)[C@@H](N)Cc1ccc(O)c(O)c1)C(=O)O [LD-Gln TFA salt, Levodopa Glutamine TFA Salt] (H-[Dopa]-Gln-OH) ?
99.7%

What would you report for N[C@@H](Cc1ccc(O)c(O)c1)C(=O)N[C@@H](Cc1c[nH]c2ccccc12)C(=O)O [LD-Trp TFA salt, Levodopa Tryptophan] (H-[Dopa]-Trp-OH) ?
54.8%

What would you report for N[C@@H](CSC[C@@H](NC(=O)[C@@H](N)Cc1ccc(O)c(O)c1)C(=O)O)C(=O)O (single isomer, unassigned; peak 1) [LD-LA1 TFA salt, Levodopa Lanthionine Peak 1 TFA Salt] ?
24.4%

What would you report for N=C(N)NCCC[C@H](NC(=O)[C@@H](N)Cc1ccc(O)c(O)c1)C(=O)O [LD-Arg TFA salt, Levodopa Arginine TFA Salt] ?
44.1%

====

METHOD: in vitro
CONDITION_DETAILS: human, Caco-2, pH 7.4, Permeability 1st
Counter-ions that a name gives are not always drawn. Non-standard residues stand in square brackets, D forms with d. Residues, ends and D or L forms follow the SMILES beside them. Dopa = N[C@@H](Cc1ccc(O)c(O)c1)C(=O)O
So I've got a bunch of molecules here, and I need their Papp B→A at 40 min, 10 μM values.
Numbers only here, please. The scale is ×10⁻⁶ cm/s.

What Papp B→A at 40 min, 10 μM value was documented for this molecule, N[C@@H](Cc1ccc(O)c(O)c1)C(=O)N[C@@H](Cc1ccc(O)cc1)C(=O)O [LD-Tyr TFA salt, Levodopa Tyrosine TFA Salt] (H-[Dopa]-Tyr-OH) ?
0.01

What would you report for N[C@@H](Cc1ccc(O)c(O)c1)C(=O)O [LD (control), L-3,4-dihydroxyphenylalanine, reference compound] ?
0.38

What would you report for N=C(N)NCCC[C@H](NC(=O)[C@@H](N)Cc1ccc(O)c(O)c1)C(=O)O [LD-Arg TFA salt, Levodopa Arginine TFA Salt] ?
0.03

What would you report for N[C@@H](Cc1ccc(O)c(O)c1)C(=O)NCC(=O)O [LD-Gly TFA salt, Levodopa Glycine TFA Salt] ?
0.38

What would you report for NCCCC[C@H](NC(=O)[C@@H](N)Cc1ccc(O)c(O)c1)C(=O)O [LD-Lys TFA salt, Levodopa Lysine TFA Salt] (H-[Dopa]-Lys-OH) ?
0.03

====

METHOD: Protein binding, solid phase extraction (SPE) method
Format: in vitro ADME, human
CONDITION_DETAILS: human, human plasma, 1.0E−05M; SPE sample preparation; read-out: % Recovery Mean
Structures can show the parent of a compound that is named as a salt. Non-standard residues stand in square brackets, D forms with d. Residues, ends and D or L forms follow the SMILES beside them. Dopa = N[C@@H](Cc1ccc(O)c(O)c1)C(=O)O
So I've got a bunch of compounds here, and I need their recovery at 10 μM values.
Answer with the value and then the unit.

What recovery at 10 μM value was documented for this compound, NCCCC[C@H](NC(=O)[C@@H](N)Cc1ccc(O)c(O)c1)C(=O)O [LD-Lys TFA salt, Levodopa Lysine TFA Salt] (H-[Dopa]-Lys-OH) ?
71%

What would you report for N[C@@H](Cc1ccc(O)c(O)c1)C(=O)N[C@@H](CCC(=O)O)C(=O)O [LD-Glu TFA salt, Levodopa Glutamic Acid TFA Salt] (H-[Dopa]-Glu-OH) ?
112%

What would you report for N[C@@H](Cc1ccc(O)c(O)c1)C(=O)N[C@@H](Cc1ccc(O)cc1)C(=O)O [LD-Tyr TFA salt, Levodopa Tyrosine TFA Salt] (H-[Dopa]-Tyr-OH) ?
68%

====

METHOD: In-vitro metabolism of LDAA compounds using liver microsomes
Format: in vitro ADME, human
CONDITION_DETAILS: incubation time 45 minutes; 1.0E−07M
Structures can show the parent of a compound that is named as a salt. Non-standard residues stand in square brackets, D forms with d. Residues, ends and D or L forms follow the SMILES beside them. Dopa = N[C@@H](Cc1ccc(O)c(O)c1)C(=O)O
MEASURED_PARAMETER: % Compound Remaining Mean (%)
Numbers only here, please. The scale is %.

What % Compound Remaining Mean value was documented for this compound, NC(=O)C[C@H](NC(=O)[C@@H](N)Cc1ccc(O)c(O)c1)C(=O)O [LD-Asn TFA salt, Levodopa Asparagine TFA Salt] (H-[Dopa]-Asn-OH) ?
63

What would you report for N[C@@H](Cc1ccc(O)c(O)c1)C(=O)N[C@@H](Cc1c[nH]c2ccccc12)C(=O)O [LD-Trp TFA salt, Levodopa Tryptophan] (H-[Dopa]-Trp-OH) ?
67

What would you report for N[C@@H](CSC[C@@H](NC(=O)[C@@H](N)Cc1ccc(O)c(O)c1)C(=O)O)C(=O)O (single isomer, unassigned; peak 1) [LD-LA1 TFA salt, Levodopa Lanthionine Peak 1 TFA Salt] ?
79

What would you report for N[C@@H](Cc1ccc(O)c(O)c1)C(=O)NCC(=O)O [LD-Gly TFA salt, Levodopa Glycine TFA Salt] ?
57

What would you report for N=C(N)NCCC[C@H](NC(=O)[C@@H](N)Cc1ccc(O)c(O)c1)C(=O)O [LD-Arg TFA salt, Levodopa Arginine TFA Salt] ?
70

What would you report for N[C@@H](Cc1ccc(O)c(O)c1)C(=O)N[C@@H](Cc1ccc(O)cc1)C(=O)O [LD-Tyr TFA salt, Levodopa Tyrosine TFA Salt] (H-[Dopa]-Tyr-OH) ?
88

What would you report for N[C@@H](CSC[C@H](NC(=O)[C@@H](N)Cc1ccc(O)c(O)c1)C(=O)O)C(=O)O (single isomer, unassigned; peak 2) [LD-LA2 TFA salt, Levodopa Lanthionine Peak 2 TFA Salt] ?
100

What would you report for NCCCC[C@H](NC(=O)[C@@H](N)Cc1ccc(O)c(O)c1)C(=O)O [LD-Lys TFA salt, Levodopa Lysine TFA Salt] (H-[Dopa]-Lys-OH) ?
77

What would you report for NC(=O)CC[C@H](NC(=O)[C@@H](N)Cc1ccc(O)c(O)c1)C(=O)O [LD-Gln TFA salt, Levodopa Glutamine TFA Salt] (H-[Dopa]-Gln-OH) ?
88

What would you report for N[C@@H](Cc1ccc(O)c(O)c1)C(=O)O [LD (control), L-3,4-dihydroxyphenylalanine, reference compound] ?
79
